Tested on: Saccharomyces cerevisiae BY4741 SeMeCo community
Assay: z-score of subpopulation abundance vs DMSO median, subpopulation auxotrophic for LUM; higher = larger share of this subpopulation than in DMSO controls
Details: 10 µM; 24 h; SM minimal medium; subpopulation (auxotrophy): LUM
MEASURED_METRIC: z-score of subpopulation abundance

In [3]: df
Out[3]:
                                   compound                              assay_system  recorded_number
0  CO/N=C(\C(=O)N[C@@H]1C(=O)N2C(C(=O)O)=C(CSc3nc(=O)c(O)nn3C)CS[C@H]12)c1csc(N)n1 [Ceftriaxone Sodium Trihydrate]  Saccharomyces cerevisiae BY4741 SeMeCo community            -0.43
1  C=CC1=C(C(=O)O)N2C(=O)[C@@H](NC(=O)/C(=N\OCC(=O)O)c3csc(N)n3)[C@H]2SC1  Saccharomyces cerevisiae BY4741 SeMeCo community            -1.01
2  CC[C@@]1(O)C(=O)OCc2c1cc1n(c2=O)Cc2cc3cc(O)ccc3nc2-1 [(S)-10-Hydroxycamptothecin]  Saccharomyces cerevisiae BY4741 SeMeCo community             0.42
3  OCc1ccccc1O[C@@H]1O[C@H](CO)[C@@H](O)[C@H](O)[C@H]1O  Saccharomyces cerevisiae BY4741 SeMeCo community             0.42
4  CCOC(=O)OC(C)OC1=C(C(=O)Nc2ccccn2)N(C)S(=O)(=O)c2ccccc21 (configuration not stated)  Saccharomyces cerevisiae BY4741 SeMeCo community            -0.42
5            CCCOc1ccc2[nH]c(NC(=O)OC)nc2c1  Saccharomyces cerevisiae BY4741 SeMeCo community             0.95
6  CO[C@@]1(NC(=O)Cc2cccs2)C(=O)N2C(C(=O)O)=C(COC(N)=O)CS[C@@H]21 [Cefoxitin sodium]  Saccharomyces cerevisiae BY4741 SeMeCo community            -0.95

meta.source: the supplement of paper PMC8975748
